Each recorded value in this set is attributed to ChEMBL document CHEMBL1124615.

experiment summary: In vitro inhibition of (3-deoxy-D-manno-2-octulosonate cytidylyltransferase) CMP-KDO synthetase a key enzyme in the biosynthesis of the lipopolysaccharide (LPS) of Gram-negative bacteria
Design: species or system Escherichia coli
reported endpoint: Ki (µM)
One number for each entry, in µM.

[ask] May I ask what Ki has been recorded for O=C(O)[C@@H]1C[C@@H](O)[C@@H](O)[C@@H]([C@H](O)CO)O1 ?
[reply] 12

* * *

experiment summary: In vitro inhibition of 3-deoxy-D-manno-2-octulosonate cytidylyltransferase (CMP-KDO) synthetase a key enzyme in the biosynthesis of the lipopolysaccharide (LPS) of Gram-negative bacteria
reported endpoint: pKi
Give bare numbers, as −log10 of the molar value.

[ask] May I ask what pKi has been recorded for NC[C@@H](O)[C@H]1O[C@H](C(=O)O)C[C@@H](O)[C@H]1O ?
[reply] 5.40
